- system name: ERBIN PDZ-GST fusion protein (aa. 1217-1371 of SEQ ID NO:201) (human, UniProt P08515 1-218 = GST)
- Sequence (P08515 whole entry, the tested form may be a part): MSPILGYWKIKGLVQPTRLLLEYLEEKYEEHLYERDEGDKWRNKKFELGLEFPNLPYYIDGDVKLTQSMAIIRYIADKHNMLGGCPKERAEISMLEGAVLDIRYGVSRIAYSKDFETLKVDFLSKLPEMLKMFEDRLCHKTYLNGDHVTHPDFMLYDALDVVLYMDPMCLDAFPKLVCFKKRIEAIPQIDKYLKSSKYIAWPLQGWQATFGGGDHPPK
- test name: competition ELISA: ERBIN PDZ-GST binding to immobilized biotin-WETWV
Where no end group is shown, it is not given here.
Recorded IC50, one value per entry.
Give the number; nM is assumed, so skip it.

Ac-WESWV [Ac-WESWV]: 2500

Exercise: Which measured IC50 value corresponds to Ac-WDTWV [Ac-WDTWV] ?
Solution: 1700

Exercise: Entry Ac-WEVWV [Ac-WEVWV] please
Solution: 4800

Reference source: patent US20030148264A1
